# EXPERIMENT NOTES: Selectivity index, ratio of IC50 for human KB cells to IC50 for chloroquine-sensitive Plasmodium falciparum 3D7
# Type: toxicity, cell-based
# APPLIED CONDITIONS: read-out: Ratio IC50
ASSAY READOUT: selectivity ratio
Give the figure only, with no unit attached.

Recorded selectivity ratio, per entry:
For the compound shown here, COc1ccc2c(c1)[n+]([O-])c(C#N)c(-c1ccccc1)[n+]2[O-] , give the reported selectivity ratio.
7.12

Suppose we examine the compound Cc1ccc2c(c1)[n+]([O-])c(C#N)c(-c1ccc(F)cc1)[n+]2[O-] ; what selectivity ratio value has been reported?
12.7

Look up selectivity ratio: Cc1ccc2c(c1)[n+]([O-])c(C#N)c(-c1ccc(Cl)cc1)[n+]2[O-]
19.3

Recorded selectivity ratio for COc1ccc2c(c1)[n+]([O-])c(C#N)c(-c1ccc(F)cc1)[n+]2[O-] , please?
21.3

Given the compound Cc1ccc2c(c1)[n+]([O-])c(C#N)c(-c1ccc(OC(F)(F)F)cc1)[n+]2[O-] , what is its reported selectivity ratio?
10.8

***
Which selectivity ratio is listed for Cc1cc2c(cc1C)[n+]([O-])c(-c1ccc(F)cc1)c(C#N)[n+]2[O-] ?
14.9

Consider the compound shown here: COc1ccc2c(c1)[n+]([O-])c(C#N)c(-c1ccc(Cl)cc1)[n+]2[O-] What is its recorded selectivity ratio?
24

What value of selectivity ratio has been recorded for this entry: Cc1ccc2c(c1)[n+]([O-])c(C#N)c(-c1ccccc1)[n+]2[O-]
7.52

Need selectivity ratio of COc1ccc2c(c1)[n+]([O-])c(C#N)c(-c1ccc(C)cc1)[n+]2[O-] , thanks.
20.9

Can you share its selectivity ratio? I mean this compound: Cc1ccc(-c2c(C#N)[n+]([O-])c3cc(C)ccc3[n+]2[O-])cc1
19.2
